Reported Growth Rate values for the following compounds.
# Test system: Fibroblast
# experiment.description: Incucyte cell viability with human fibroblast; further: unitless GR value; below 1 slowed growth and below 0 cell loss
# Format: toxicity, cell-based
# condition.notes: 24 h, 10 µM, compound concentration 10 uM, replicate number 2
measurement.name: Growth Rate

[
  {
    "compound": "CCc1cnn2c(NCc3ccc[n+]([O-])c3)cc(N3CCCCC3CCO)nc12 (stereo not drawn)",
    "result.number": -0.14
  },
  {
    "compound": "C=CC(=O)Nc1ccc2[nH]c(=O)n(C3CCN(Cc4ccc(-c5ccc6c(c5)NC(=O)CO6)cc4)CC3)c2c1",
    "result.number": 0.51
  },
  {
    "compound": "NC1(c2ccc(-c3nc4c(O)ccnn4c3-c3ccccc3)cc2)CCC1",
    "result.number": 0.93
  },
  {
    "compound": "O=C(CCSCc1ccco1)NNC(=O)N1Cc2ccccc2Oc2ccc(Cl)cc21",
    "result.number": 0.72
  },
  {
    "compound": "CN1CCN([C@H]2CC[C@@H](n3cc(-c4ccc(Oc5ccccc5)cc4)c4c(N)ncnc43)CC2)CC1",
    "result.number": -0.46
  },
  {
    "compound": "CC[C@]1(C)C[C@@H](OC(=O)CSc2nnc(N)[nH]2)[C@@]2(C)[C@H](C)CC[C@@]3(CCC(=O)[C@H]32)[C@@H](C)[C@@H]1O",
    "result.number": 0.97
  },
  {
    "compound": "O=C1NCc2ccc3c(-c4cccc(Cl)c4)c[nH]c3c21",
    "result.number": -0.57
  },
  {
    "compound": "CC(=O)Nc1c(F)cc(C(=O)N[C@H]2CC[C@H](O)CC2)cc1O[C@@H](C)c1ccccc1",
    "result.number": 1
  }
]
